Source listed as patent US20240218057A1.

# experimental-target: T1, SARS-COV-2 RBD (SARS-COV-2, UniProt P0DTC2 319-539)
# T1 construct: also called WT RBD
# experiment-notes: ELISA, RBD coated on plate
measurement-type: EC50 (ng/mL)
# number only, unit ng/mL dropped from output

Answered examples (2):
1) C922 (antibody, V domains shown) VH: QVQLVESGGGLVKPGGSLRLSCAGSGFTFTDYYMAWIRQAPGKGLEWVSYISTSDRFINYADSVKGRFTISRDDAKNSLYLQMNSLRAEDTAVYYCARDGGGYDRFDHWGQGTLVTVSS VL: DIQMTQSPSSLSASVGDRVTITCQASQDISNLLNWYQQKAGKAPKLLIYDASNLETGVPSRFSGSGSGTDFTFTISSLQPEDIATYYCLQYDNLPLTFGQGTKLEIK	2.42
2) C1054 (antibody, V domains shown) VH: EVQLLESGGGLVQPGGSLRLSCVVSGFTFSSYAMNWVRQAPGKGLEWVSVIGGSGDGRYYADSVKGRFTISRDNSKNTLYLQMNSLRGDDTAVYYCARDVPVEQQLVPTFDYWGQGTLVTVSS VL: DIQMTQSPSSLSASVGDRVTITCRASQSISRYLNWYQQKPGKAPKLLIYAASSLQSGVPSRFSGSGSGTEFTLTISSLQPEDFATYYCQQSYSTLSITFGQGTRLEIK	1.84

--- query ---
Exam item: Name the reported EC50 value associated with the binder C907 (antibody, V domains shown) VH: QVQLQESGPGLVKPSETLSLTCTVSGGSITSYYWTWIRQSPGKGLEWIGYIYYIGSTNYNPSLKSRLTISLATSKNQFSLRLNSVTAADTAVYYCASYYNDTSGYSYGLDVWGQGTTVTVSS VL: DIQMTQSPSSLSAFVGDRVTITCRAGQSISSYLHWYQQKPGKAPKLLIYATSTLQSGVPSRFSGRGSGTDFTLTISGLQPEDFATYYCQQSYSTPQTFGQGTKVEIK
Marked response: 3.71
